Test system: FIPV
Assay: Post-viral entry assay, FIPV-infected cells by IPMA
Details: Alphacoronavirus 1, CRFK
Collected EC50 values appear next to each entry.
Answer format: numeric, µM implied, no suffix.

# compound, EC50 / µM
measured = [
    ("O=c1cc(-c2ccc(O)c(O)c2)oc2cc(O)cc(O)c12 [Luteolin]", 36.3),
    ("COc1ccc(-c2cc(=O)c3c(O)cc(O)c(-c4cc(-c5cc(=O)c6c(O)cc(O)cc6o5)ccc4OC)c3o2)cc1 [Isoginkgetin]", 4.77),
]

Note: attention shifts to another entry.
Field request: EC50 | item: O=c1cc(-c2ccc(O)c(-c3c(O)cc(O)c4c(=O)cc(-c5ccc(O)cc5)oc34)c2)oc2cc(O)cc(O)c12 [Amentoflavone]
144

----------
System: CRFK cells
Conditions: cat, 24 h
measured_endpoint: CC50 (µM)
Reply numerically in µM, unit not repeated.

Entry O=c1cc(-c2ccc(O)c(O)c2)oc2cc(O)cc(O)c12 has what CC50?
248

----------
Assay: in vitro
Conditions: cat
measured_endpoint: viability at 24 h, 75 µM

Would you mind telling me what viability at 24 h, 75 µM value was observed for COc1ccc(-c2cc(=O)c3c(O)cc(O)c(-c4cc(-c5cc(=O)c6c(O)cc(O)cc6o5)ccc4OC)c3o2)cc1 ?
≥ 90%

----------
System: CRFK cells
measured_endpoint: CC50

So what's the measured CC50 for this one? COc1ccc(-c2cc(=O)c3c(O)cc(O[C@@H]4O[C@H](CO[C@@H]5O[C@@H](C)[C@H](O)[C@@H](O)[C@H]5O)[C@@H](O)[C@H](O)[C@H]4O)cc3o2)cc1
> 200 µM

----------
Assay: in vitro
Conditions: cat
Catalogue of CC50 at 24 h readings, one per entry.

Use the examples below as a reference point.
# compound, CC50 at 24 h
records = [
    ("O=C(/C=C/c1ccc(O)cc1)OC[C@H]1O[C@@H](Oc2c(-c3ccc(O)cc3)oc3cc(O)cc(O)c3c2=O)[C@H](O)[C@@H](O)[C@@H]1O [Tiliroside]", "65.2 µM"),
    ("O=c1c(O)c(-c2ccc(O)c(O)c2)oc2cc(O)cc(O)c12", "> 200 µM"),
    ("COc1ccc(-c2cc(=O)c3c(O)cc(O)c(-c4cc(-c5cc(=O)c6c(O)cc(O)cc6o5)ccc4OC)c3o2)cc1", "199 µM"),
]

Here is another compound to look at.
// CC50 at 24 h lookup, key: O=C(O[C@@H]1Cc2c(O)cc(O)cc2O[C@H]1c1cc(O)c(O)c(O)c1)c1cc(O)c(O)c(O)c1 [Gallocatechin Gallate]
> 200 µM

----------
System: CRFK cells
Assay: Cell cytotoxicity and cell viability (MTS assay)
Details: 24 h
measured_endpoint: CC50 (µM)
All answers are understood in µM, so give the number only.

Value wanted: CC50 (CRFK cells) of entry O=C(O[C@@H]1Cc2c(O)cc(O)cc2O[C@@H]1c1cc(O)c(O)c(O)c1)c1cc(O)c(O)c(O)c1 [Epigallocatechin gallate]
282

----------
System: FIPV
Experiment: Cotreatment (virucidal) assay, IPMA
Format: cell-based, feline infectious peritonitis virus
Conditions: Alphacoronavirus 1, FIPV and compound coincubated with cells at 37°C for 2 h, 24 h
measured_endpoint: EC50 (µM)
Give your result in µM as a bare value.

If you can, please state the reported EC50 value of COc1ccc(-c2cc(=O)c3c(O)cc(O)c(-c4cc(-c5cc(=O)c6c(O)cc(O)cc6o5)ccc4OC)c3o2)cc1 .
40.6

meta.source: paper PMC10082729
